// Kd lookup, one value per entry
target: RSV prefusion F (preF), DS-Cav1 stabilized trimer, subtype A (Respiratory Syncytial Virus, subtype A, UniProt P03420 26-513); assay: BLI, IgG on anti-human IgG sensors, 100 nM antigen, apparent KD

binder	unit_name	Kd
ADI-41818 (antibody, V domains shown) VH: EVQLVESGGGLVQPGGSLRLSCAASGFTVNTNYMSWVRQAPGKGLEWVSIIYSSGSTSYADSVKGRFTISRDNSENTLYLQMHTLRAEDTAVYYCVRERTPFYYVSSGYWDSWGQGTLVTVSS VL: EIVLTQSPGTLSLSPGERATLSCRASQSVDSSYLAWYQQKPGQAPRLLIFGASSRATGIPDRFSGSGSGTDFTLTISRLEPEDFAVYYCQQYGFSYTFGQGTKVEIK	nM	0.676
ADI-41820 (antibody, V domains shown, also called Ab 926; Antibody Number 926) VH: EVQLVESGGGVVQPGRSLRLSCAVSGFTFSTYGMHWVRQTPGRGLEWVAVISYDGNHKYYADSVMGRFTISRDNSKDTLYLQVNSLRPEDSAVYYCAKDRIHCPNGVCYVHSSFYGLDVWGQGTTVTVSS VL: QTVVTQEPSLTVSPGGTVTLTCGSSTGAVTSGHYPYWLQQKPGQAPRTLIYDTTNKDSWTPARFSGSLLGGKAALTLSGAQPEDEAQYYCLLSFNGPYWVFGGGTKVTVL	nM	64.9
ADI-41814 (antibody, V domains shown, also called Ab 921; Antibody Number 921) VH: EVQLLESGPTLVKPTQTLTLTCTFSGFSLSTFGVGVGWIRQPPGKALECLALIYWDDDKRYSPSLKSRLTITRDTSKNQVVLTMTNMDPVDTATYYCAHRRSSTVTTGFFDYWGRGTLVTVSS VL: QPVLTQPPSVSGAPGQRVTVSCTGNSSNIGAGHGAHWYQQLPGTAPKLLIYGSTDRPSGVPDRFFGSQSGTSASLVITELRAEDEADYYCQSFDSSLSIWVFGGGTKLTVL	nM	3.39
